measured.on: BRD9-GFP (Homo sapiens)
Construct: CHYSEL (2A cis-acting hydrolase element) remnant after GFP; mCherry is split off as a separate protein (C); expressed in transfected cells; host or cells: HEK293A cells (Invitrogen R70507), lentiviral transduction with pLenti6-BRD9-GFP-CHYSEL-mCherry, blasticidin selection
Sequence (Q9H8M2 1-597): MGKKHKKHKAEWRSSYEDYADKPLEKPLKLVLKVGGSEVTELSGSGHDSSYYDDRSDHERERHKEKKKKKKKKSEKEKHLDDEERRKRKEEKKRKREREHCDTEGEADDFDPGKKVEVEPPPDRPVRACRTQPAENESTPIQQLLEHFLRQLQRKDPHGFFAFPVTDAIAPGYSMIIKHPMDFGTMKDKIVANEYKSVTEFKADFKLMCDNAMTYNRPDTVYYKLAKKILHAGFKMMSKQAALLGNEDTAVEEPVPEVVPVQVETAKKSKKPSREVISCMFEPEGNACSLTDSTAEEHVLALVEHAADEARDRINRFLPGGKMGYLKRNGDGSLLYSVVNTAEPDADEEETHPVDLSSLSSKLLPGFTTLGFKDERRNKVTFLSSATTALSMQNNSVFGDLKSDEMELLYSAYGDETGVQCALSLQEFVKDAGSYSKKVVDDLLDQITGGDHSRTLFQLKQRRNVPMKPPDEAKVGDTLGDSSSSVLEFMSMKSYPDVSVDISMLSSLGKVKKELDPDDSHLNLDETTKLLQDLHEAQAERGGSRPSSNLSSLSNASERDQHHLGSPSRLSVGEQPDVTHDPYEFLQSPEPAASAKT
measurement.description: BRD9-GFP protein abundance flow cytometry assay in HEK293A cells
Type: cell-based
applied.conditions: HEK293A-BRD9-GFP-CHYSEL-mCherry cells, 24 h at 37° C., 10-point 1:3 dilution; concentration at which 50% maximal degradation was observed
endpoint: DC50 (nM)
Kindly answer with a numeric value in nM, unit omitted.

Item CCCn1cc(-c2cc(OC)c(CCN3CC[C@@H](OC4CCN(C(=O)c5ccc(Cl)c(N6CCC(=O)NC6=O)c5)CC4)[C@H](F)C3)c(OC)c2)c(C)c(C)c1=O : provide DC50
5

Item COc1cc(-c2cn(C)c(=O)c3cnccc23)cc(OC)c1CCCN1CCC(OC2CCN(C(=O)c3ccc(Cl)c(N4CCC(=O)NC4=O)c3)CC2)CC1 : provide DC50
2

Item COc1cc(-c2cc(C)c(=O)n(C)c2)c(OC)cc1CN1CCC(OC2CCN(C(=O)COc3ccc(N4CCC(=O)NC4=O)cc3)CC2)CC1 : provide DC50
60

###

measured.on: BRD9-GFP (Homo sapiens, UniProt Q9H8M2)
Construct: CHYSEL (2A cis-acting hydrolase element) remnant after GFP; mCherry is split off as a separate protein (C); expressed in transfected cells; host or cells: HEK293A cells (Invitrogen R70507), lentiviral transduction with pLenti6-BRD9-GFP-CHYSEL-mCherry, blasticidin selection
measurement.description: BRD9-GFP protein abundance flow cytometry assay in HEK293A cells
Type: cell-based
applied.conditions: HEK293A-BRD9-GFP-CHYSEL-mCherry cells, 24 h at 37° C., 10-point 1:3 dilution; concentration at which 50% maximal degradation was observed
For each of the compounds below, state its DC50.
Kindly answer with a numeric value in nM, unit omitted.

Item COc1cc(-c2cn(C)c(=O)c(C)c2C)cc(OC)c1OCC1CCN(CC2CCN(C(=O)c3ccc(Cl)c(N4CCC(=O)NC4=O)c3)CC2)CC1 : provide DC50
3

Item CCCCn1cc(-c2cc(F)c(CN3CCC(OC4CCN(C(=O)COc5ccc(C)c(N6CCC(=O)NC6=O)c5)CC4)CC3)c(F)c2)c2ccncc2c1=O : provide DC50
7

Item Cn1cc(-c2cc(F)c(CCN3CCC(OC4CCN(CCn5cccc(CN6CCC(=O)NC6=O)c5=O)CC4)CC3)c(F)c2)c2ccncc2c1=O : provide DC50
33

Item CCCCn1cc(-c2ccc(O[C@H]3CCN(CC4CCN(C(=O)COc5ccc(C)c(N6CCC(=O)NC6=O)c5)CC4)C[C@@H]3F)c(OC)c2)c2ccncc2c1=O : provide DC50
1

Item CCCCCCn1cc(-c2cc(OC)c(CCN3CCC(OC4CCN(C(=O)c5ccc(F)c(N6CCC(=O)NC6=O)c5)CC4)CC3)c(OC)c2)c2ccncc2c1=O : provide DC50
17

Item CCCCn1cc(-c2cc(OC)c(OCC3CCN(CC4CCN(C(=O)c5ccc(Cl)c(N6CCC(=O)NC6=O)c5)CC4)CC3)c(OC)c2)c2ccncc2c1=O : provide DC50
3

Item COc1cc(-c2cn(C)c(=O)c3cnccc23)c(OC)cc1CN1CCC(OC2CCN(C(=O)c3ccc(Cl)c(N4CCC(=O)NC4=O)c3)CC2)CC1 : provide DC50
16

Item COc1ccc(C(=O)N2CCC(CN3CCC(Oc4ccc(-c5cn(C)c(=O)c6cnccc56)cc4Cl)CC3)CC2)cc1N1CCC(=O)NC1=O : provide DC50
11

Item COc1cc(-c2cn(C)c(=O)c3cnccc23)ccc1OC1CCN(CC2CCN(C(=O)c3ccc(Cl)c(N4CCC(=O)NC4=O)c3)CC2)CC1 : provide DC50
2

Item COc1cc(-c2cn(C)c(=O)c3cnccc23)c(OC)cc1CN1CCN(CC2CCN(C(=O)c3ccc(OC)c(N4CCC(=O)NC4=O)c3)CC2)CC1 : provide DC50
16

Item COc1ccc(C(=O)N2CCC(CN3CCN(Cc4c(OC)cc(-c5cn(C)c(=O)c6cnccc56)cc4OC)CC3)CC2)cc1N1CCC(=O)NC1=O : provide DC50
27

Item CCCn1cc(-c2cc(OC)c(CCN3CCC(OC4CCN(CCn5cccc(CN6CCC(=O)NC6=O)c5=O)CC4)CC3)c(OC)c2)c(C)c(C)c1=O : provide DC50
11

Item CCCCCCn1cc(-c2cc(OC)c(CN3CCC(OC4CCN(C(=O)c5ccc(OC)c(N6CCC(=O)NC6=O)c5)CC4)CC3)c(OC)c2)c2ccncc2c1=O : provide DC50
29

Item CCCCn1cc(-c2cc(F)c(O[C@@H]3CCN(CCC4CCN(C(=O)c5ccc(OC)c(N6CCC(=O)NC6=O)c5)CC4)C[C@H]3F)c(F)c2)c2ccncc2c1=O : provide DC50
1

Item CCCCn1cc(-c2cc(OC)c(OC3CCN(CC4CCN(C(=O)c5ccc(OC)c(N6CCC(=O)NC6=O)c5)CC4)CC3)c(OC)c2)c2ccncc2c1=O : provide DC50
6

Item CCCn1cc(-c2cc(OC)c(CCN3CCN(CC4CCN(C(=O)c5ccc(Cl)c(N6CCC(=O)NC6=O)c5)CC4)CC3)c(OC)c2)c(C)c(C)c1=O : provide DC50
2

Item CCCCn1cc(-c2ccc(O[C@H]3CCN(CC4CCN(CCn5cccc(CN6CCC(=O)NC6=O)c5=O)CC4)C[C@@H]3F)cc2)c2ccncc2c1=O : provide DC50
21

Item COc1cc(-c2cn(C)c(=O)c3cnccc23)ccc1OC1CCN(CC2CCN(C(=O)c3ccc(OC)c(N4CCC(=O)NC4=O)c3)CC2)CC1 : provide DC50
4

Item CCCCn1cc(-c2cc(F)c(CN3CCC(OC4CCN(C(=O)c5ccc(OC)c(N6CCC(=O)NC6=O)c5)CC4)CC3)c(OC)c2)c2ccncc2c1=O : provide DC50
7

Item COc1cc(-c2cn(C)c(=O)c3cnccc23)ccc1OC1CCN(CC2CCN(C(=O)c3cccc(N4CCC(=O)NC4=O)c3)CC2)CC1 : provide DC50
12

Item COc1cc(-c2cn(C)c(=O)c3cnccc23)c(OC)cc1CCN1CCC(OC2CCN(C(=O)c3ccc(OC)c(N4CCC(=O)NC4=O)c3)CC2)CC1 : provide DC50
60

Item CCCCn1cc(-c2ccc(CN3CCC(OC4CCN(C(=O)c5ccc(OC)c(N6CCC(=O)NC6=O)c5)CC4)CC3)c(F)c2)c2ccncc2c1=O : provide DC50
4

Item COc1ccc(C(=O)N2CCC(OCCN3CCN(Cc4c(OC)cc(-c5cn(C)c(=O)c6cnccc56)cc4OC)CC3)CC2)cc1N1CCC(=O)NC1=O : provide DC50
37

Sourced from patent US20220315578A1
